Test: AUC in rat plasma at 10 mg/kg, po using 10.6% PEG400, 5.4% Cremophor EL, 2.6% Labrasol, 1.4% Capmul MCM in water (80%) vehicle
Type: ADME, organism-based
Parameters: dose 10 mg/kg, route oral
Settings: plasma
REPORTED METRIC: AUC (µM·h)

CCCCCCOC(=O)/C=C/c1ccc(NC(=O)C2(NC(=O)c3ccc4c(C5CCCC5)c(-c5ncc(Cl)cn5)n(C)c4c3)CCC2)cc1OCC ... 2.2
CCOc1cc(NC(=O)C2(NC(=O)c3ccc4c(C5CCCC5)c(-c5ncc(Cl)cn5)n(C)c4c3)CCC2)ccc1/C=C/C(=O)OCCN1CCOCC1 ... 0.2
CCOc1cc(NC(=O)C2(NC(=O)c3ccc4c(C5CCCC5)c(-c5ncc(Cl)cn5)n(C)c4c3)CCC2)ccc1/C=C/C(=O)OCC(N)=O ... 0.13
CCOc1cc(NC(=O)C2(NC(=O)c3ccc4c(C5CCCC5)c(-c5ncc(Cl)cn5)n(C)c4c3)CCC2)ccc1/C=C/C(=O)OC ... 2.6

[A] CCOc1cc(NC(=O)C2(NC(=O)c3ccc4c(C5CCCC5)c(-c5ncc(Cl)cn5)n(C)c4c3)CCC2)ccc1/C=C/C(=O)OCOC(=O)C(C)(C)C
[B] CCOc1cc(NC(=O)C2(NC(=O)c3ccc4c(C5CCCC5)c(-c5ncc(Cl)cn5)n(C)c4c3)CCC2)ccc1/C=C/C(=O)OCCOCCOC
[C] CCOc1cc(NC(=O)C2(NC(=O)c3ccc4c(C5CCCC5)c(-c5ncc(Cl)cn5)n(C)c4c3)CCC2)ccc1/C=C/C(=O)OCCNN1CCCC1
Input: Which order do these items take when sorted by rising AUC? List them. Form entry: ranked labels (order as requested).
Output: C, B, A
(C: 0.06 µM·h, B: 0.1 µM·h, A: 0.3 µM·h)
